System: HCV replicon
Measurement Notes: Anti-HCV assay / replicon assay (EC50, luciferase read-out)
Assay type: cell-based, hepatitis C virus (HCV)
Test Parameters: CC50/EC50 ratio (selectivity index)
Binary call on CC50/EC50 with cut-off 100: strictly below means true (1), and equality or higher means false (0).

// known answers, use as guide
INSERT INTO assay_data (molecule, assigned_class) VALUES
  ('CCOc1nc(N)nc2ccc(-c3ccc(N)cc3)nc12', 'false (0)'),
  ('CC(=O)Nc1ccc(-c2ccc3nc(N)nc(OC(C)C)c3n2)cc1', 'false (0)'),
  ('CCOc1nc(NC(C)=O)nc2ccc(-c3ccc(F)cc3)nc12', 'false (0)'),
  ('N#Cc1ccc(-c2ccc3nc(N)nc(N4CCN(C(=O)COc5ccc(Cl)cc5)CC4)c3n2)cc1', 'false (0)'),
  ('Cc1cccc(NC(=O)N2CCN(c3nc(N)nc4ccc(-c5ccc(F)cc5)nc34)CC2)c1', 'false (0)');

Qu. Determine whether this molecule shows CC50/EC50 lower than 100 (ties excluded): `CC(C)C(=O)Nc1ccc(-c2ccc3nc(N)nc(N4CCOCC4)c3n2)cc1`
Ans. false (0)

###

System: Huh-7 HCV replicon cells
Measurement Notes: CC50 assay in Huh-7 HCV replicon cells (CellTiter-Glo)
Type: cell-based, human
Test Parameters: 3 days, 50% cytostatic concentration
Measurement Name: CC50
Provide the measurement as a number trailed by its unit.

# annotated cases, reported CC50 shown
INSERT INTO measurements (compound, measurement_name, measured) VALUES
  ('CCOc1nc(N)nc2ccc(-c3ccc(Cl)cc3)nc12 [Example 463]', 'CC50', '50.1 µM'),
  ('COc1ccc(-c2ccc3nc(N)nc(NCCN4CCOCC4)c3n2)cc1OC [Example 38]', 'CC50', '7.1 µM'),
  ('Nc1nc(N2CCN(C(=O)COc3ccc(Cl)cc3)CC2)c2nc(-c3cccc(Cl)c3)ccc2n1 [Example 385]', 'CC50', '7.4 µM');

// batch mode: one CC50 value per listed entry
1. COc1ccc(-c2ccc3nc(OCCOc4ccccc4)nc(N4CCN(C(=O)Nc5cccc(C)c5)CC4)c3n2)cc1OC [Example 19]
2. COc1ccc(-c2ccc3nc(C)nc(N4CCN(C(=O)Nc5cccc(C)c5)CC4)c3n2)cc1OC [Example 11]

Ans.
["25.1 µM", "7.3 µM"]

###

Tested on: HCV replicon
Measurement Notes: Anti-HCV assay / replicon assay (EC50, luciferase read-out)
Assay type: cell-based, hepatitis C virus (HCV)
Test Parameters: CC50/EC50 ratio (selectivity index)
Procedure: The anti-HCV activity of the pyrido[3,2-d]pyrimidine derivatives of this invention was tested in a human hepatoma Huh-7 cell line harbouring a HCV replicon. The assay comprised the following steps: Step 1: Compound Preparation and Serial Dilution • 1. for water soluble pyrido[3,2-d]pyrimidine derivatives, a volume of 500 μL of solution in cell media (DMEM, 10% FBS, P/S, L-Glutamine) was prepared with a concentration being twice the concentration of the starting final serial dilution concentration. […]
Measurement Name: CC50/EC50

INSERT INTO results (molecule, measured) VALUES
  ('Nc1nc(N2CCN(C(=O)COc3cccc(Cl)c3)CC2)c2nc(-c3ccc(F)cc3)ccc2n1', 837);

// batch mode: one CC50/EC50 value per listed entry
1. Nc1nc(OCCF)c2nc(-c3ccc(F)cc3)ccc2n1
2. CC(=O)Nc1nc(OC(C)C)c2nc(-c3ccc(F)cc3)ccc2n1
3. CC(=O)N1CCN(c2nc(N)nc3ccc(-c4ccc5c(c4)OCO5)nc23)CC1
4. CC(C)Sc1nc(N)nc2ccc(-c3ccc(F)cc3)nc12
5. Nc1nc(N2CCN(C(=O)COc3ccc(Cl)cc3)CC2)c2nc(-c3ccc(C(F)(F)F)cc3)ccc2n1
6. COc1ccc(-c2ccc3nc(N)nc(NCCC(=O)N4CCN(C(C)=O)CC4)c3n2)cc1OC

Ans.
1: 2282; 2: 492; 3: 128; 4: 268; 5: 287; 6: 261

// batch mode: one CC50/EC50 value per listed entry
1. CC(C)COc1nc(N)nc2ccc(-c3ccc(F)cc3)nc12
2. COc1ccc(-c2ccc3nc(N)nc(Nc4cccc(C)c4)c3n2)cc1OC
3. COc1cc(-c2ccc3ncnc(N4CCN(C(=O)Nc5cccc(Cl)c5)CC4)c3n2)ccc1OC(C)C
4. COc1ccc(-c2ccc3nc(N)nc(N4CCN(C(=O)Nc5cccc(Cl)c5)CC4)c3n2)cc1OC
5. COc1ccc(-c2ccc3nc(N)nc(N4CCCC(C(=O)NCC(C)C)C4)c3n2)cc1OC (stereo not drawn)
6. CCOCCOc1nc(N)nc2ccc(-c3cccc(F)c3)nc12
7. CCOc1nc(N)nc2ccc(-c3ccccc3F)nc12

Ans.
1. 68
2. 195
3. 71
4. 106
5. 56
6. 89
7. 54

// batch mode: one CC50/EC50 value per listed entry
1. CCOc1nc(N)nc2ccc(-c3ccc(Cl)cc3)nc12
2. COc1ccc(-c2ccc3nc(OCCOc4ccccc4)nc(N4CCN(C(=O)Nc5cccc(C)c5)CC4)c3n2)cc1OC
3. CCOc1nc(N)nc2ccc(-c3ccc(OC)c(OC)c3)nc12
4. COCCOc1nc(N)nc2ccc(-c3ccc(F)cc3)nc12

Ans.
[98, 52, 264, 2863]

The measured values listed here are drawn from patent US8232278B2.
